From: patent US7687501B2

Molecular target: hmGluR1 receptor (Homo sapiens, UniProt Q13255)
Construct: expressed in transfected cells; host or cells: CHO
Sequence (Q13255 19-1194): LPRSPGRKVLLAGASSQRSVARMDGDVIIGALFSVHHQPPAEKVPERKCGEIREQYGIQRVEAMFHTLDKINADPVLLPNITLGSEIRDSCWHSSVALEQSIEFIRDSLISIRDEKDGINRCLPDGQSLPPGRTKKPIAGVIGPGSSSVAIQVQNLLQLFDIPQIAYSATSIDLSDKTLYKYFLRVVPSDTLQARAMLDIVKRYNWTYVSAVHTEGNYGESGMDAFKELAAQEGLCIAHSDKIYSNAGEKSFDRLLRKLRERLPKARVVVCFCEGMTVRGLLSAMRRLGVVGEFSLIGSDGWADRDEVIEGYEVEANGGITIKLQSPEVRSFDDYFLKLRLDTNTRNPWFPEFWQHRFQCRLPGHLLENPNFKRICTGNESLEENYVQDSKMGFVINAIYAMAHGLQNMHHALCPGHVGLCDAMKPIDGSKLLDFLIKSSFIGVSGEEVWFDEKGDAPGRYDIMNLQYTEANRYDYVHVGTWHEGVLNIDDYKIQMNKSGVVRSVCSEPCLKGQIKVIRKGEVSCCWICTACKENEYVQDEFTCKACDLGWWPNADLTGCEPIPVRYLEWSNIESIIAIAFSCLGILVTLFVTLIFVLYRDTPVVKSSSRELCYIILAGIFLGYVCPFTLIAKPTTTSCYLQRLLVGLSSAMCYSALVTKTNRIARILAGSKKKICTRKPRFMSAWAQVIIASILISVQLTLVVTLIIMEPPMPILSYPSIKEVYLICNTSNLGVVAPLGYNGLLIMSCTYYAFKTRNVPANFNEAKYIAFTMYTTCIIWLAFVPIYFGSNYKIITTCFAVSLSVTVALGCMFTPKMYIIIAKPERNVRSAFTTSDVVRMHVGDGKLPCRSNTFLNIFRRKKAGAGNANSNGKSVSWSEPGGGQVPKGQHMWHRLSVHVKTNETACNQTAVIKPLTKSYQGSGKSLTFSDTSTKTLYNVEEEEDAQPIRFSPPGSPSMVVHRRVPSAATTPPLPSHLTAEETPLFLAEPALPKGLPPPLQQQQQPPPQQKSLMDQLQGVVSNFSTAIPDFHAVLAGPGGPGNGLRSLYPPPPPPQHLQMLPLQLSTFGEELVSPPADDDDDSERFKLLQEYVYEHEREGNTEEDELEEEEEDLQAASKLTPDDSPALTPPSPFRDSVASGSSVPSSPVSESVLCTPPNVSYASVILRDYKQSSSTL
Assay: IC50 determination: intracellular calcium mobilization (FLIPR) upon Quisqualate stimulation in CHO cell line stably expressing hmGluR1
Type: cell-based
Details: CHO cells expressing hmGluR1; against Quisqualate 1 μM (EC80); compounds added 10 minutes before Quisqualate; read-out: mGluR1 IC50
Method: A CHO cell line stably expressing hmGluR1 receptor was established. One day prior to assay, cells were split in growth media at concentration of 50,000 cells/well in a volume of 100 μl and seeded into black clear-bottom 96-well plates. […] A 96-tip pipettor/fluorometric imaging plate reader (FLIPR 384; Molecular Devices) was used and intracellular calcium mobilization was measured by increases in fluorescence upon agonist Quisqualate stimulation following 6 sec-baseline measurement. […]
pIC50: −log10 of the molar value.
Threshold rule: pIC50 greater than or equal to 8 is fulfilled; below that, not fulfilled.

> print(dat)
                                   molecule  discrete.label
1  CN(C)c1ccnc2sc3c(=O)n(-c4ccc(Br)cc4)ncc3c12 [Compound 9D]       fulfilled
2  CN(C)c1ccnc2sc3c(=O)n(-c4ccc(Cl)cc4)ncc3c12 [Compound 9C]       fulfilled
3  Cc1ccc(-n2ncc3c(sc4nccc(N(C)C)c43)c2=O)cc1 [Compound 9A]       fulfilled
4  Cc1ccc(-n2ncc3c(sc4nccc(NC5CC5)c43)c2=O)cc1 [Compound 23G]   not fulfilled
5  COc1ccc(-n2ncc3c(sc4nccc(N(C)C)c43)c2=O)cc1 [Compound 9B]       fulfilled
6  CCNc1ccnc2sc3c(=O)n(-c4ccc(C)cc4)ncc3c12 [Compound 23R]   not fulfilled
7  CN(C)c1ccnc2sc3c(=O)n(-c4ccc5scnc5c4)ncc3c12 [Compound 9E]       fulfilled
8  COc1ccc(-n2ncc3c(sc4nccc(N(C)N)c43)c2=O)cc1 [Compound 23I]       fulfilled
